# TARGET_ENTITY: F730Y Tma30 DNA polymerase (nucleotides 1-570 of Taq DNA polymerase with G46D fused to nucleotides 571-2679 of Tma DNA polymerase with D323A, E325A, F730Y)
# EXPERIMENT_DESCRIPTION: Limiting template primer extension competition assay (ddNTP incorporation), F730Y Tma30
# TEST_CONDITIONS: inhibition of DNA synthesis ([α-33P]dCMP incorporation); 20 μM each dNTP, M13 mp18/DG48, pH 8.3, 10 min; 2 units enzyme; read-out: Concentration of Zowie-ddCTP or ddCTP needed for 50% inhibition
pIC50: −log10 of the molar value.
ASSAY_METRIC: pIC50

Nc1ccn([C@H]2CC[C@@H](COP(=O)(O)OP(=O)(O)OP(=O)(O)O)O2)c(=O)n1 :: 7.24
